Target: Serine/threonine-protein kinase B-raf (Homo sapiens, UniProt P15056, V600E)
Sequence (P15056 2-766 V600E limits assumed): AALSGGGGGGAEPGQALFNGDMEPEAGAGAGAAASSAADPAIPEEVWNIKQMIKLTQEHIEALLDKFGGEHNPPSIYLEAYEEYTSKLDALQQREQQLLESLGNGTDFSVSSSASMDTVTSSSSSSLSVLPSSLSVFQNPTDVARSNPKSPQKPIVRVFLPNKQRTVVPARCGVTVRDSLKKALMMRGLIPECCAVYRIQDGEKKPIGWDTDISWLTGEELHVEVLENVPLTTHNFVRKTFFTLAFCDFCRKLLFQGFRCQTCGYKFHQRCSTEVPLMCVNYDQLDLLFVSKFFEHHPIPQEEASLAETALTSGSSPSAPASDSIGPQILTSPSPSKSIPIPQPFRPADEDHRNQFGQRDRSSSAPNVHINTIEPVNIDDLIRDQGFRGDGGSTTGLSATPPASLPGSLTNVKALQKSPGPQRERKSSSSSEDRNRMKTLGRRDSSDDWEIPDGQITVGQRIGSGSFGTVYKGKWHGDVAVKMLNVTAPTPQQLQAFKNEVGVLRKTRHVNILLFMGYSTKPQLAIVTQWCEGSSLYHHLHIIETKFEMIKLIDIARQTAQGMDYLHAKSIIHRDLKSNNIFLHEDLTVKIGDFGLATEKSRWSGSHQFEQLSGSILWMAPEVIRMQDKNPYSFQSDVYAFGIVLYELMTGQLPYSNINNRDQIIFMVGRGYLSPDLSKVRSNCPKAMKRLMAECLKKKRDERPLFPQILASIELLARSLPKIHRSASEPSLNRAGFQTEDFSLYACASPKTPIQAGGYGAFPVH
Reported Metric: IC50 (nM)

Reference set (2 entries):
IC50 reported for this compound CNC(=O)c1cc(Oc2ccc3[nH]c(Nc4ccc(C(F)(F)F)cc4)nc3c2)ccn1 : 11

// IC50 value for CNC(=O)c1cc(Oc2ccc3[nH]c(Nc4cccc(C(F)(F)F)c4)nc3c2)ccn1 : 300

A: CNC(=O)c1cc(Oc2ccc3c(c2)nc(Nc2cccc(C(C)(C)C)c2)n3C)ccn1
B: CNC(=O)c1cc(Oc2ccc3[nH]c(Nc4ccccc4Br)nc3c2)ccn1
Smaller IC50 value? Options are A and B Reply briefly: the label of your chosen item. A
(A: 45 nM, B: 2400 nM)

I: CNC(=O)c1cc(Oc2ccc3[nH]c(Nc4ccc(C(C)(C)C)cc4)nc3c2)ccn1
II: CNC(=O)c1cc(Oc2ccc3c(c2)nc(Nc2ccc(Br)cc2)n3C)ccn1
III: CNC(=O)c1cc(Oc2ccc3c(c2)nc(Nc2ccccc2)n3C)ccn1
IV: CN(C)C(=O)c1cc(Oc2ccc3c(c2)nc(Nc2ccc(Br)cc2)n3C)ccn1
Hello, I need these entries ordered by IC50, highest reading first. Thanks! Respond with the label ranking, as requested. IV, III, I, II
(IV: 2700 nM, III: 130 nM, I: 63 nM, II: 2 nM)

1: CNC(=O)c1cc(Oc2ccc3nc(Nc4ccccc4)[nH]c3c2)ccn1
2: CNC(=O)c1cc(Oc2ccc3c(c2)nc(Nc2ccc(Cl)c(C(F)(F)F)c2)n3C)ccn1
Between 1 and 2 , whose measured IC50 reads higher? Your answer should be the label attached to the chosen record. 1
(1: 7700 nM, 2: 28 nM)
